Cited source: patent US9730944B2

Test system: poliovirus (PV type 3)
Assay: microbe, parasite or virus in culture
Format: cell-based
Details: Enterovirus C, Vero, read-out: PV-3 EC50
Listed below: EC50 values for each entry.
Form entry: value (µg/mL) — number only.

// known answers, use as guide
compound="Nc1nc(N2CCN(C(=O)COc3ccc(Cl)cc3)CC2)c2nc(CCOc3ccc(F)cc3)sc2n1 [Example 48]" target_or_system="poliovirus (PV type 3)" quantitative_result=0.36
compound="CC(C)CN1CCN(c2nc(N)nc3oc(-c4ccc(F)cc4)nc23)CC1 [Example 190]" target_or_system="poliovirus (PV type 3)" quantitative_result=2.79

Consider now this further compound.
Request: Look at this compound and give its reported EC50. Nc1nc(N2CCN(C(=O)COc3ccc(F)cc3)CC2)c2nc(CCc3ccc(F)cc3)sc2n1 [Example 51]
Response: 2.68
